# Test system: T1, Taq DNA polymerase (Thermus aquaticus, UniProt P19821 1-832)
# T1 construct: also called Taq enzyme; Taq DNA enzyme
# T1 sequence (P19821 whole entry): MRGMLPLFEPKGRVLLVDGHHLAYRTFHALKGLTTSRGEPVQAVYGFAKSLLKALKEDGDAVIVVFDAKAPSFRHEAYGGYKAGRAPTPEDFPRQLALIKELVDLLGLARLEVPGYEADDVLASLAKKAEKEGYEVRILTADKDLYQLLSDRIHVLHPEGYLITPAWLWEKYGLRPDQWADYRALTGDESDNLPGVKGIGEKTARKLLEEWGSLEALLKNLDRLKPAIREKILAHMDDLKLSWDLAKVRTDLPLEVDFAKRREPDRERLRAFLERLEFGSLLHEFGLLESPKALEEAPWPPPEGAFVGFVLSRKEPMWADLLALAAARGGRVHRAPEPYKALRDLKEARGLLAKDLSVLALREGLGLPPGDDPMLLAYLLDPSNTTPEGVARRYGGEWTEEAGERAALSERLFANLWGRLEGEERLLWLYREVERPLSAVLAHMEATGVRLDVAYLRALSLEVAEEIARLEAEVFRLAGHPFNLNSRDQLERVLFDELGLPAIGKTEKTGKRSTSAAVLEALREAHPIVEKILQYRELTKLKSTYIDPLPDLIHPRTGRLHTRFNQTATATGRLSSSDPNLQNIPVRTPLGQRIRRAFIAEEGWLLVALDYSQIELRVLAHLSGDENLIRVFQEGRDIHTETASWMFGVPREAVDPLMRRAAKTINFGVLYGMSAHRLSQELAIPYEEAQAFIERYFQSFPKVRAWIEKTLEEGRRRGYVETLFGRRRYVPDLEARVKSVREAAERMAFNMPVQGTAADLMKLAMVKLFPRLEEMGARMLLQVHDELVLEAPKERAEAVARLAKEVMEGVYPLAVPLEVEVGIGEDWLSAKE
# Method: AMC sensor, antibody immobilised
# Lookup of reported koff keyed by entry
Express the result in s⁻¹ but write the number alone.

Binder: WT 1-5 (antibody, V domains shown, WT background; CDRs built) VH: QVQLQQPGAELVKPGASVRLSCQTSVNTFTTYYLYWVKQRPGEGLEWIGGLNPTSGGPVFDEKFKSKATLTVDTSSSTAYMQLSSLTSVDSAVYYCTRSVIRRGYYPDYWGQGTALTVSS VL: DIQMTQTTSSLSASLGDRVTISCRGSQDINNYINWYQQKPDGTIKLLIYFTSRLHSGLPSRFSGSGSGTDYSLTIANLEQEDIATYFCQQDDTVPLTWGAGTKVELKR
Number: 0.000314
//
Binder: WT 1-8 (antibody, V domains shown, WT background; CDRs built) VH: QVQLQQPGAELVKPGASVRLSCQTSVETFSTYYLYWVKQRPGEGLEWIGGLNPTSNPVFDEKFKSKATLTVDTSSSTAYMQLSSLTSVDSAVYYCTRSLIRRGYYPDYWGQGTALTVSS VL: DIQMTQTTSSLSASLGDRVTISCRGSQDIQNYLNWYQQKPDGTIKLLIYFTSRLNSGLPSRFSGSGSGTDYSLTIANLEQEDIATYFCQQDDTLPLTWGAGTKVELKR
Number: 9.85e-05

In the following, a different binder is considered.
Given the binder Anti-Taq 2C7 recombinant antibody (WT) (antibody, mouse IgG1, kappa, V domains shown, Mouse antibody expressed in CHO cells; also called WT antibody; antibody of sample 1) VH: QVQLQQPGAELVKPGASVRLSCQTSVDTFSTYYLYWVKQRPGEGLEWIGGVNPTSNPVFDEKFKSKATLTVDTSSSTAYMQLSSLTSVDSAVYYCTRSILRRGYYPDYWGQGTALTVSS VL: DIQMTQTTSSLSASLGDRVTISCRGSQDIQNYVNWYQQKPDGTIKLLIYFTSRLQSGIPSRFSGSGSGTDYSLTIANLEQEDIATYFCQQDDTIPVTWGAGTKVELKR , what is its reported koff?
0.000145
